Source of measurements: the supplement of paper PMC9170038

tested on: K4 kissing-loop RNA reporter; test: apparent KD of K4 kissing-loop reporter; higher = weaker reporter binding; settings: Eterna round: R107; input ligand: FMN 200 uM;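 note: bound reporter read as fluorescence of individual clusters on recovered sequencing chips by microscopy, with normalized cluster intensities fitted with a binding model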

sequence-input: AGAAAAGGGACGAUCGUCGAGUUGCCAGAAGGAGCGGUAAUUUUACCAGGUAGGUCGCUGGCCCAGUGAUGUUGGGCUUUUAAGA [Biisinaor]
apparent KD of K4 kissing-loop reporter: 0.105 µM
--
sequence-input: UUCAGACUACUACUAUUUAGUAGUAUAUACUAGGAUAUCCAGAUAUGGAGAAGGAGUGAUGUUCCUUAGUAGUAGUGAAUUAAAU [KL-XFMN-A6]
apparent KD of K4 kissing-loop reporter: 0.145 µM
--
sequence-input: GUACGCUCUCGAGUGAUGUUCGGUAAUCGCGAGGAUAUCGCUUUUGCGAGAAGGCGCGGAAUGAGGAAACUCGUUCUGAGUGUAC [FMN A 23]
apparent KD of K4 kissing-loop reporter: 0.364 µM
--
sequence-input: AUUUUGGUUGAGAGUGAUGUUCCUUGUGUUCGAGGACCGGUACGGCCGCCACUCGGGUAGAAAAUAAAAGAAAUGUUUGAUUUUU [BDazzled - #11 SS Tryptophan A]
apparent KD of K4 kissing-loop reporter: 0.242 µM
--
sequence-input: UGACUGGACUGAAGGAGCGCGCGAGACAAAGUCUCGAACUGCUAGUGAUGUUAGCGAAUAACGCAGGUAGGUCGCAGUCUAGUCU [ArgBS 14 #SwitchBubble #StaticStem]
apparent KD of K4 kissing-loop reporter: 0.177 µM
--
sequence-input: AGCAGUGAUGUUGCAUUUAAAAUGACCGAUACCAGUAUCGAUAGAUACCCUUGGCAGCGGAUUUCCGCAACGACUAGGAAACUAG [Ex Theophylline A K4 15]
apparent KD of K4 kissing-loop reporter: 0.324 µM
--
sequence-input: CCGGGCGGCUGAAGGAGCGGGCGGGCCCGAGUGAUGUUCGGGUGGGCCGUGAGGCCCGGAGCCCAGGUAGGUCGCGGUUCCGUCC [#2 Same State - Arginine B Attempt #18 (HarryS)]
apparent KD of K4 kissing-loop reporter: 0.201 µM
--
sequence-input: GGUGCUGUCUGUGCCGCCCUCCUCGUCCCUCGAGGACCGGUACGGCCGCCACUCGAGUGAUGUUCGGGUAGCCAUCCCUGCUAGC [Bdazzled - #19 Exc. Tryptophan A]
apparent KD of K4 kissing-loop reporter: 0.647 µM
--
sequence-input: AGGAUCCGUCGACAAAAGUCGACAUAAGCCAAGGAUAUGACGAAAGUCAGAAGGUGGUCAUAAGACCAGUGAUGUUGGUGGAUCC [FmnA 13 #SwitchBubble #K4Late]
apparent KD of K4 kissing-loop reporter: 0.909 µM
--
sequence-input: UGCGCUAUGUCCUAAAACGUCCUCCGGGAUACCAGAGUCUUUUUAUUCCCUUGGCAGCUUGAGUGAUGUUUGAUGCCGUUCUUGU [srrevmullin]
apparent KD of K4 kissing-loop reporter: 0.364 µM
--
sequence-input: UUAGAUCAAAGAUCAGUCUUAUUGAGAGAACGAGGACCGGUACGGCCGCCACUCGAGUGAUGUUCGAGAACUCUCUUGACAAAUU [AK1 EXC Tryptophan A]
apparent KD of K4 kissing-loop reporter: 0.158 µM

###

system: MS2 coat protein; experiment: apparent KD of MS2 coat protein; designed switch direction (-1 OFF switch, 1 ON switch): 1; higher = weaker reporter binding; conditions: input ligand: none
endpoint-name: apparent KD of MS2 coat protein

sequence-input: GGUCCAUCAUGAGGAUAUGGCACCUUAUUGGUGCCAGAAGGCAUGUCUAUAGACAUGAGGAUCACCCAUGUUAUAAAUUGGACC [Eli NG1ss - 92] (Eterna round: R96, puzzle: Same State NG 1)
reported-measurement: 111 nM

sequence-input: AACAUGAGGAUCACCCAUGUCAGGUCGCCAACCUACAUGAGGAAGGAUAUAGCCUCGAAUAUUGGCUAGAAGGUCCUCAUGAAU [Tieson] (Eterna round: R96, puzzle: Same State NG 3)
reported-measurement: 39.9 nM

sequence-input: GUGGUCAAUCAAGGAUAUGGAGCCUUAUUGGCUCCAGAAGGUGGGACAUGAGGAUCACCCAUGUGGCAGUGGUAAAAUGACCAC [Fiskers NG1ss - 37] (Eterna round: R96, puzzle: Same State NG 1)
reported-measurement: 63.4 nM

###

system: MS2 coat protein; experiment: apparent KD of MS2 coat protein; designed switch direction (-1 OFF switch, 1 ON switch): -1; higher = weaker reporter binding; conditions: input ligand: FMN 200 uM
Decide by apparent KD of MS2 coat protein: equal to or exceeding 100 nM means condition met, less means condition not met.

sequence-input: CUGAGCUGAGGAUAUACAUGAGGAUCACCCAUGUUUUGUAGAUAGUGAAGAAGUAGAUGUAGAAGGCAGUUCGG [Mod of JL 24 - Jieux - Exclusion 3] (Eterna round: R97, puzzle: Exclusion 3)
experimental-system: MS2 coat protein
cat: condition met
//
sequence-input: GGUAAGCUAGGAUAUGCUUUGGGAAAGCAUUCCUUCGAUAAACUUGAGGAUCACCCAAGUAGAAGGAGCUUACU [salish99_ex2_r4_014] (Eterna round: R97, puzzle: Exclusion 2)
experimental-system: MS2 coat protein
cat: condition not met
//
sequence-input: GCAGCAUAGUAAACAUACUGUUACAUGAGGAUCACCCAUGUACAGGAUAUGGUCUGGAUUACAGGCCAGAAGGGUACAAGCUGC [Eli exng3 - 023] (Eterna round: R96, puzzle: Exclusion NG 3)
experimental-system: MS2 coat protein
cat: condition not met
//
sequence-input: AUUUUAUAUGAAGGAUAUACUUAACAUGAGGAUCACCCAUGUGGUGUUGUGAGUGAGUGAGUUUAGUAGAAGGUCAAUUAUUUU [JMF's solution 32] (Eterna round: R96, puzzle: Exclusion NG 2)
experimental-system: MS2 coat protein
cat: condition met
//
sequence-input: GCGGACAAGAUGGCGACAUCAGAGACAUGAGGAUCACCCAUGUAGGAUAUCGAUUCGAAACGAAUCGAGAAGGGCAUAGUCCGC [JL denovo 34] (Eterna round: R96, puzzle: Exclusion NG 3)
experimental-system: MS2 coat protein
cat: condition not met
//
sequence-input: UCGUUCCGUGUAGGAUAUUGGCCUCCCUCGGGCCGAGAAGGACAUGAGGAUCACCCAUGUAUGUUAUUAUCGCGCGUGGCGCAU [Design 89] (Eterna round: R96, puzzle: Exclusion NG 1)
experimental-system: MS2 coat protein
cat: condition met

###

apparent KD of MS2 coat protein: recorded values
tested on: MS2 coat protein; test: apparent KD of MS2 coat protein; designed switch direction (-1 OFF switch, 1 ON switch): -1; higher = weaker reporter binding; details: input ligand: FMN 200 uM
endpoint-name: apparent KD of MS2 coat protein (nM)

sequence-input: AUUGGACACUCAGGAUAUCAGGUUCUAUACAUGAGGAUCACCCAUGUGGGCGAACCCAUGAUAGCUGAGAAGGGAGUAAUCCUA [Orxete] (Eterna round: R96, puzzle: Exclusion NG 2)
experimental-system: MS2 coat protein
reported-measurement: 39
//
sequence-input: GUAGAGUCAGGAUAUACGAGAUCGAAAGAUCUUUGAUCCUUACAUGAGGAUCACCCAUGUAGAAGGGACUCUAC [Omei mod 2 to Eli's favorate candidate (ch.parushev)] (Eterna round: R97, puzzle: Exclusion 2)
experimental-system: MS2 coat protein
reported-measurement: 513
//
sequence-input: GUUCGACAUGAGGAUCACCCAUGUGAGGAUAUACGAUUAGCUGCUAGGUAGUUAGUAUGUAGAAGGUGCGUGUU [EX1 #70] (Eterna round: R97, puzzle: Exclusion 1)
experimental-system: MS2 coat protein
reported-measurement: 53.3
//
sequence-input: UGUUGUUACGCAGGAUAUGAGGAUCACCCAUAUCAGGAUAUCGAAAGAGAACUUCUGAGGAUCACCCAGAAGGGCGGGUUAACA [pwkr exNG2 2xF5 2xFMN.38] (Eterna round: R96, puzzle: Exclusion NG 2)
experimental-system: MS2 coat protein
reported-measurement: 16.9
//
sequence-input: AGUCGAAAGACCCACAUGGACAUGAGGAUCACCCAUGUGCAAGCCUUUUGCUCGUCAGCUAGGUCAAAAGACCUAGC [JL Omei mod 1] (Eterna round: R97, puzzle: Sensor, turn-off variant 1)
experimental-system: MS2 coat protein
reported-measurement: 655

###

test system: MS2 coat protein; assay: apparent KD of MS2 coat protein; higher = weaker reporter binding; conditions: Eterna round: R107; input ligand: arginine 13.2 mM
apparent KD of MS2 coat protein: recorded values

sequence-input: ACAUUUAACUGAAGGAGCGUGAUAAACAUGAGGAUCACCCAUGUACCAAAGAUUUUCAGUUCACAGGUAGGUCGCAGACUAAUGA [JR_ExcArginiB_Sub016]
apparent KD of MS2 coat protein (nM): 10.6

sequence-input: GUCUUGGGAUCGGCCGCCACUACAUGAGGAUCACCCAUGUGGACAAAUAGGGUUGUUAAGCUCGGUAGGACCGGGAUUCGGACAU [Oncetexeza]
apparent KD of MS2 coat protein (nM): 22.1

sequence-input: CGAUAUGAGGUCGAUACCAGCAGCUUCAAGCACAUGAGGAUCACCCAUGUCCAUUUUACUUGCCCUUGGCAGCGACUUUGGAAAC [theeternabot_sameState_MS2_Theo_B_23]
apparent KD of MS2 coat protein (nM): 36.2
